Recorded values, source the domain aggregation screens of Martell et al. (2025).

Assay: soluble fraction after stress (log2 fold change); higher = more stays soluble; pooled small domains, quantitative proteomics
Conditions: stress: 50 degC
# if value of soluble fraction (log2) reaches -0.1, tag 1 (yes); if it stays below, tag 0 (no)

Query Sequence: HMHLTRYQYKVETEQEAVGLKELSSVHDLQIKENEATFQADSDAIDEILKTLLLYGVKKLEATPPTLED
Class: 1 (yes)

Query Sequence: HMYQKERDKEISEIETFLKKITNANGTRAYSDESIADMSYVELLNLYEGITSKLTEEEIENI
Class: 1 (yes)

Query Sequence: HMVANLPFNYKVYAKKGKLYVVISYKDSNGKYKKKWIRTGLDEGTKKKEVNTVADQIAAEYYSSMRLE
Class: 0 (no)

Query Sequence: HMSAETREELVGREGVSLTDLRPSGFALFGQEKIDVVSESEFIEEGTSVRIVSVEGSRHIVRAKR
Class: 1 (yes)

Query Sequence: HMTRNGTVTFFNHDKGYGFIKDVLTQESVFVHINSLSEPINEQNKVSFEIEMGPRGSNAINVKLI
Class: 0 (no)

Query Sequence: HMVNYKEILRLAHEGYSQRQIATNIGNSRNTVSEVLDAAKAANIAWPPEETVTNEQLGAILFPNRH
Class: 1 (yes)

Query Sequence: HMTGTKEQQVVMLNNILQKQLQAFELQGKRDYPMVTMKNMYNTLSKMVENAGLQTVESYFVDPIKGQQM
Class: 1 (yes)

Query Sequence: HMIAVIKPSATAEQKAGLVDWIRGQGIDVHISEGHDYTVLGLIGDTSKIDMDLIASLDIVDSVKRVA
Class: 1 (yes)

Query Sequence: HMNNWYESSIKSLVEEYFREHGFSVVFDSSEFWDVFIEKYHKQIPSSQIALFDQVAAEARSYAFNKK
Class: 1 (yes)

Query Sequence: HMKLTINIDAAHDGKTIKQLFAEKGYSLELIKKFKYDGAIEVNGERKTVRWVLREGDLLVLEAN
Class: 0 (no)

Query Sequence: HMTKKSLFNQYLDDQKRLDIVTLQKAELVDLHKLADELNIDQYNQLKKNELIFKILQSNPSE
Class: 0 (no)

Query Sequence: HMETYSGVERAAILVMYLERTLAKALLDHMNDEEVRRVGMAMASIDRVEGPDIERIVGDFVRELYEVS
Class: 0 (no)

Query Sequence: HMKVEIVRVVKDIHIGDEITKDMVRTVEVGGYNLPDGVVKDTATVIGRFASADMVPGDYIISSKIADAP
Class: 0 (no)

Query Sequence: HMGTAEDYLLPRRAEILSIIRDHEFANFDLIRRRFLAVNERTLRYDLKKLSDLGLIKKLGKTRGVYYRAAK
Class: 0 (no)

Query Sequence: HMSAISSARKEKIIEYLTDHGSARSSEIAEYVDLRPSRVRDYLGELVREDIVVAEGANRNRTYRLK
Class: 1 (yes)

Query Sequence: HMNMFDMRKTGARISQLRRAAGLTQAELAEKLGISYQAVSSWERGSNMPDIGKLLDLARILNTTVDALLSA
Class: 0 (no)

Query Sequence: HMGIQYVASGHYARMETDAQGVSRLFPPESGAPDESDRLAALSPEVLTRLILPLGDFAPEDVEEMAVD
Class: 1 (yes)

Query Sequence: HMKFTELEQLMLKREINTLADIARVLKTTPQAVSNWKARDQIPYHIVAKINASINKDSNDSSLSI
Class: 1 (yes)

Query Sequence: HMIGEKLKEIREKTGMNKKEFAQYLGLKYTTYNNYETEAREPASDFLILISTKFDVSIDYLLGLQ
Class: 0 (no)
